Listed below: melting point values for each entry.

Endpoint output: melting point of Cc1cccc2c(C3=CCN(C[C@H](O)COc4cccc5[nH]ccc45)CC3)c[nH]c12 . Value? 155 to 158 °C

What measured melting point goes with Clc1ccc2c(c1)C(c1ccccc1)=Nc1cccnc1N2 ? 156 to 158 °C

Tell me the measured melting point of CC1Cc2cc(O)ccc2C2C(F)CC3(C)C(=O)CCC3C12 (configuration not stated) , please. 185 to 186 °C

Given NC1=NN(c2cccc(Cl)n2)C(c2ccccc2)C1 (configuration not stated) , state its recorded melting point. 188 °C

Item C=C1C[C@@H]2C(=O)OC(=O)[C@@H]2C1 has what recorded melting point? 50 to 51 °C

Which melting point value belongs to FC(F)(F)c1ccc(-c2nc(Oc3csc(C(F)(F)F)c3)cc(Oc3csc(C(F)(F)F)c3)n2)cc1 ? 93 to 95 °C

Reported melting point for CC(=O)COc1ccc(Cc2ccccc2)cc1 : what is it? 51 to 52 °C

Record request: melting point value, item CC(C)(/C=C/I)C(=O)Nc1ccc(Cl)cc1 145 to 146 °C

* * *

experimentalEndpoint: melting point

A selection of reference data follows.
>>> observedvalue("N#CCS(=O)(=O)c1ccc([N+](=O)[O-])cc1")
"166 to 168 °C"
>>> observedvalue("COc1ccc(C2=NN(C(=O)c3cccc(NC(=O)c4ccc(NC(=O)c5ccc([N+](=O)[O-])cc5)cc4)c3)CCC2)cc1OCCN(C)C")
"274 °C"

I have this molecule here, Cc1ccc(NC(Nc2ccc(C)cc2)Nc2ccc(C)cc2)cc1 , and I need its recorded melting point. 130 to 131 °C

Sample O=S(=O)(NCCCl)c1ccccc1 — what was its melting point? 58 to 62 °C

Any idea what its melting point is? The molecule is CC12CCC(I)CC1=CCC1C2CCC2(C)C1CCC21OCCO1 (stereo not given) 140 to 141 °C

* * *

// reported melting point for each item listed

>>> observedvalue("CC(C)(C(=O)O)n1c(=O)[nH]c2ccc(F)cc2c1=O")
"249 to 253 °C"
>>> observedvalue("CCc1cnc(CSc2cnc(NC(C)=O)s2)o1")
"147 to 148 °C"
>>> observedvalue("O=C(O)c1cn(C2CC2)c2nc(N3CCC(c4cccnc4)C3)c(F)cc2c1=O (configuration not stated)")
"226 to 228 °C"
>>> observedvalue("CSc1c(O)ccc2c1[nH]c1ccccc12")
"137 to 138 °C"
>>> observedvalue("Cc1ccc(-c2cnn(C)c2)cc1")
"107 to 108 °C"
>>> observedvalue("COc1cccc2c1CN(c1c(F)cc3c(=O)c(C(=O)O)cn(-c4ccc(F)cc4)c3c1F)C2")
"278 to 284 °C"
>>> observedvalue("COC(=O)C1=Cc2cc(-c3ccc(OC(C)C)cc3)ccc2S(=O)(=O)CC1")
"140 to 142 °C"
>>> observedvalue("C[C@@H]([C@@H](CC1CCC(c2ccccc2)CC1)C(=O)N[C@H](C(=O)Nc1nccs1)C(C)(C)C)N(O)C=O (some centres not stated)")
"213 to 214 °C"
>>> observedvalue("COc1ccc2cc3c(c(-c4ccc(C)cc4)c2c1)C(=O)NC3=O")
"298 to 301 °C"
>>> observedvalue("CN1Cc2c(CO)ncn2-c2ccc(F)cc2C1=O")
"221 to 223 °C"

Give the measured melting point of CC(C)(c1ccc(O)cc1)c1ccc(O)c(C(C)(C)c2ccc(O)cc2)c1 . 190 °C

Sample COc1ccc(C2(O)OC(=O)C(c3cc(OC)c4c(c3)OCO4)=C2CC2CCCC2)cc1 (configuration not stated) — what was its melting point? 139 to 140 °C

* * *

experimentalEndpoint: melting point

Example entries and their recorded answers appear below.
>>> observedvalue("NS(=O)(=O)c1ccc(-c2cnn(Cc3ccc(F)c(F)c3)c(=O)c2-c2ccc(F)cc2)cc1")
"253 to 255 °C"
>>> observedvalue("O=C(OC1c2ccccc2C(=O)N1c1ccc2ccc(Cl)nc2n1)N1CCN(C(=O)C2CCCCC2)CC1 (stereo not given)")
"240 °C"
>>> observedvalue("CC1=CC(O)C(OC(=O)c2nc[nH]c2C)C(C)(C)CC1=O (stereo not given)")
"201 to 202 °C"
>>> observedvalue("CC(=O)Oc1ccc2sc(S(N)(=O)=O)cc2c1")
"129 to 132 °C"

Let us move to another entry and its melting point.
melting point for Cn1nnnc1SCCSc1ccccn1 ? 77 to 79.5 °C

* * *

Recorded melting point, one value per entry.

Solved cases below.
>>> observedvalue("Cc1c(C(=O)O)cnn1-c1cc(C(F)(F)F)ccc1Cl")
"124 to 125 °C"
>>> observedvalue("CC(C)C1(C)N=C(c2nc(O)ccc2C(=O)O)NC1=O (stereo not given)")
"201 to 203 °C"
>>> observedvalue("CCc1c(C)[nH]c(=O)c(N(C)C)c1Cc1cc(C)cc(C)c1")
"229 to 230 °C"

Which value of melting point has been reported for CC(C)c1nc(COCc2ccccc2)n(C(C)F)c1Sc1cc(Cl)cc(Cl)c1 (stereo not given) in the records? 131 to 132 °C

// query melting point value for entry C=CC(=O)NC[C@H](O)[C@@H](O)[C@H](O)[C@H](O)CO 122 to 123 °C

Fill blank: measured melting point of the molecule NC(=O)c1cccc(-c2ccc3nnn(Cc4ccc5ncccc5c4)c3n2)c1 is ____. 263 to 265 °C

For the molecule CC(NC(Nc1cc(C(F)(F)F)cc(C(F)(F)F)c1)=C(C#N)S(C)(=O)=O)C(C)(C)C (stereo not given) , what melting point is on record? 181 to 182 °C

Item under review: COC(=O)c1ccccc1S(=O)(=O)NC(=O)c1nc(OC)cc(OC)n1 . Reported melting point? 163 to 165 °C

Which melting point is reported for this molecule? COC(=O)c1ccc(OCC2CC(=O)N(c3ccc(C)cc3)C2)cc1 (stereo not given) 110 to 112 °C

Using the record for Cc1c(O)ccc(-c2ccc(C#N)cc2)c1C , report its melting point. 174 to 176 °C

* * *

Items are presented alongside their recorded melting point.

Observe how each entry below is paired with its result.
>>> observedvalue("C=CCCOc1cc2c(c(Cl)c1Cl)C(=O)C(C)(C1CCCC1)C2 (stereo not given)")
"63 to 65 °C"
>>> observedvalue("CC(C)c1ccc(F)c(C(C)C)c1NC(=O)CN1CCN(CCSc2nc3ccccc3o2)CC1")
"142 to 144 °C"
>>> observedvalue("COC(=O)CCSSN=C1C(=O)N(C)C(=O)N1c1ccccc1F")
"81 to 84.5 °C"
>>> observedvalue("O=C(CCl)Nc1c([N+](=O)[O-])cnn1-c1c(Cl)cc(C(F)(F)F)cc1Cl")
"130 to 133 °C"

Turning to the following compound.
Param item = CC[C@@]1(O)C(=O)OCc2c1cc1n(c2=O)Cc2c-1nc1ccc(Cl)c3c1c2C(NC(C)=O)CN3 (stereo not given in full) ; retrieve measured melting point. 250 to 270 °C

* * *

Attribute: melting point

Recorded melting point, per entry:
>>> observedvalue("CCn1c(Oc2cccc(NC(=O)N(C)C)c2)nnc1[C@@H](C)NS(=O)(=O)c1ccc(Cl)c(Cl)c1")
"158 to 159 °C"
>>> observedvalue("C=CCc1cc(C#N)ccc1O")
"70 °C"
>>> observedvalue("COCCOc1ccc2c(c1)C1(CO2)C(=O)N(Cc2ccccn2)c2ccccc21 (stereo not given)")
"140 to 142 °C"
>>> observedvalue("O=C(NCCN1CCN(C(c2ccccc2)c2cccnc2)CC1)C1CSC(c2cccnc2)N1 (stereo not given)")
"130 to 131 °C"
>>> observedvalue("Cc1ccc(S(=O)(=O)N2[C@H](CCCO)CC[C@H]2c2ccc(F)cc2)cc1")
"96 °C"

Consider the molecule CCOC(=O)C1=Cc2cc(C)ccc2SC1C(F)(F)F (stereo not given) and give its measured melting point. 93.1 to 94.7 °C

Any idea what melting point was measured for Oc1cc2c(Cl)cc(Br)cc2cc1Br ? 156 to 158 °C

melting point lookup needed for COc1ccc(COC(=O)Nc2cncc(O)c2CCCOc2cccnc2Oc2cccc(Cl)c2)cc1 , thanks. 150 °C

# get_value(readout='melting point', item= C#CCN(C)Cc1nc2ccc(OC(F)(F)F)cc2s1 ) 117 to 120 °C

Can you share its melting point? I mean this molecule: COc1ccc(F)c2c1C(=O)CC2 118 to 120 °C

* * *

experimentalEndpoint: melting point

Answered examples (6):
>>> observedvalue("Cc1nn(C)c2ncc3c(c12)CCC(C)C3 (stereo not given)")
"92 to 101 °C"
>>> observedvalue("CCOC(=O)c1c(N2CCN(C(=O)c3cccs3)CC2)c2cnccc2[nH]c1=O")
"231 °C"
>>> observedvalue("CCc1cn(C2CC(O)C(CN(C)C(=O)Cc3ccccc3Br)O2)c(=O)[nH]c1=O (stereo not given)")
"182 to 185 °C"
>>> observedvalue("CN1CCC(c2cc(F)ccc2F)(S(=O)(=O)c2ccc(Cl)cc2)CC1")
"172 to 175 °C"
>>> observedvalue("CS(=O)(=O)Nc1cc(CC(=O)O)cc2c1NC(C(F)(F)F)CC2 (stereo not given)")
"189 to 191 °C"
>>> observedvalue("CCC(CC)Nc1nc(-c2cc(OC)c(OC)c(OC)c2)nc2sc(C#N)c(C)c12")
"226 to 228 °C"

melting point lookup needed for O=C1c2cc(O)ccc2OCC1Cc1ccccn1 (stereo not given) , thanks. 150 to 151 °C

Which value of melting point has been reported for CC(c1ccccc1[N+](=O)[O-])S(N)(=O)=O (stereo not given) in the records? 107 to 109 °C

Bench note: what melting point did CCC(=O)NCc1nc(-c2cc(C(C)(C)C)c(O)c(C(C)(C)C)c2)cs1 show? 82 to 83.5 °C

Give the measured melting point of O=C1OC[C@H](c2ccccc2)N1C(=O)C1C=C1 . 118 to 119 °C
